# EXPERIMENT_NOTES: qHTS of pediatric cancer cell lines to identify multiple opportunities for drug repurposing: Primary screen for RD cells (AID 1347104); also: nearly all actives have a fitted effect of over 55% in size
# REPORTED_CONDITIONS: RD rhabdomyosarcoma viability, CellTiter-Glo luminescence, 48 h; series mostly up to 46 µM
Results filed as inconclusive are left out. The source made the active and inactive calls. Calls follow the shape of the dose curve; as a rule, active = well fitted cell-killing curve with a large enough effect; inconclusive = small, poorly fitted or top-dose-only effect; inactive = flat fitted curve, though single readings scatter. Starred links: 1 amine or outer side, 2 acyl side, 3 side chain; linkers in the order of their positions; H or OH if unused. Positions of bridges follow the written chain, without caps; N, C: chain ends. Non-standard residues stand in square brackets, D forms with d. Residues, ends and D or L forms follow the SMILES beside them. Chains are numbered I, II in the order given. Actinocin(9to1) = Cc1c2oc3c(C)ccc(C(=O)[*:1])c3nc-2c(C(=O)[*:2])c(N)c1=O; NMeV = CN[CH](C(=O)O)C(C)C; Sar = CNCC(=O)O
Answer with one of the outcomes Y (active), N (inactive)

>>> label_class("CCNC(=O)c1cc2c(-c3cc(OCCN4CCCC4)c(Cl)cc3Cl)nc(N)nc2s1")
"Y"
>>> label_class("C[C@@H](Oc1ccc2[nH]nc(C=Cc3cnn(CCO)c3)c2c1)c1c(Cl)cncc1Cl")
"Y"
>>> label_class("C[C@H]1C[C@H]2[C@@H]3CCC4=CC(=O)C=C[C@]4(C)[C@@H]3C(=O)C[C@]2(C)[C@@]1(O)C(=O)CO")
"N"
>>> label_class("CCCCCCCCc1ccc(CCC(N)(CO)CO)cc1")
"Y"
>>> label_class("C#Cc1cccc(Nc2ncnc3cc(OCCOC)c(OCCO)cc23)c1")
"Y"
>>> label_class("C=Cc1c(C)c2cc3nc(cc4[nH]c(cc5nc(cc1[nH]2)C(C)=C5CCC(=O)O)c(CCC(=O)OC)c4C)[C@@]1(C)C3=CC=C(C(=O)OC)[C@H]1C(=O)OC")
"Y"
>>> label_class("O=C(O)c1ccc(Nc2ncc3c(n2)-c2ccc(Cl)cc2C(c2c(F)cccc2F)=NC3)cc1")
"Y"
>>> label_class("OCCN1C[C@H](O)[C@@H](O)[C@H](O)[C@@H]1CO")
"N"
>>> label_class("CCCCCCCCCCCC(CC1OC(=O)C1CCCCCC)OC(=O)C(CC(C)C)NC=O (stereo unspecified)")
"N"
>>> label_class("Cc1cncc2cccc(S(=O)(=O)N3CCCN(C(=O)CN)C[C@@H]3C)c12")
"N"

Q. Dear colleague, could you share the recorded outcome for O=c1[nH]c(=O)n([C@H]2C[C@@H](O)[C@@H](CO)O2)cc1F when you have a moment?
A. Y

Q. Dear colleague, could you share the recorded outcome for C=C1C(=O)O[C@H]2[C@@H]1CCC(C)=CCC[C@@]1(C)O[C@@H]21 when you have a moment?
A. Y

Q. Dear colleague, could you share the recorded outcome for O=S(=O)(O)CCSSCCS(=O)(=O)O when you have a moment?
A. N

Q. Dear colleague, could you share the recorded outcome for CCN(CC)Cc1ccc2cc(COC(=O)Nc3ccc(C(=O)NO)cc3)ccc2c1 when you have a moment?
A. Y

Q. Dear colleague, could you share the recorded outcome for Cc1c2oc3c(C)ccc(C(=O)NC4C(=O)NC(C(C)C)C(=O)N5CCCC5C(=O)N(C)CC(=O)N(C)C(C(C)C)C(=O)OC4C)c3nc-2c(C(=O)NC2C(=O)NC(C(C)C)C(=O)N3CCCC3C(=O)N(C)CC(=O)N(C)C(C(C)C)C(=O)OC2C)c(N)c1=O (stereo unspecified) (I: TVP[Sar][NMeV] / II: TVP[Sar][NMeV]; ester I:1-I:C, II:1-II:C; linker I:N-II:N via Actinocin(9to1); configuration not given here) when you have a moment?
A. Y

Q. Dear colleague, could you share the recorded outcome for COC1=C2C[C@@H](C)C[C@H](OC)[C@@H](O)[C@@H](C)C=C(C)[C@H](OC(N)=O)[C@@H](OC)C=CC=C(C)C(=O)NC(=CC1=O)C2=O when you have a moment?
A. Y
